System: MOOVA
ASSAY_NOTES: Herbicidal activity for paddy test
Assay type: in vivo
CONDITION_SUMMARY: 0.500 kg/ha
MEASURED_PARAMETER: pest or weed control at 500 g/ha (%)
Please reply with the bare figure in % and do not write the unit itself.

// solved cases for pest or weed control at 500 g/ha follow
C=CCON=C(CC)C1=C(O)CC(c2c(C)c(C)c3c(c2Cl)CC(C)(C)C3)CC1=O (stereo not shown) [Compound 40] : 0
CCCC(=NOC)C1=C(O)CC(c2c(C)c3c(c(C)c2Cl)CC(C)(C)C3)CC1=O (stereo not shown) [Compound 25] : 0
C=CCON=C(CCC)C1=C(O)CC(c2c(C)c(C)c3c(c2C)CC(C)(CC)C3)CC1=O (stereo not shown) [Compound 18] : 0
CCCC(=NOC)C1=C(O)CC(c2c(C)c(C)c3c(c2C)CC(C)(CC)C3)CC1=O (stereo not shown) [Compound 16] : 50
CCC(=NOC)C1=C(O)CC(c2c(C)c(C)c3c(c2Cl)CC(C)(C)C3)CC1=O (stereo not shown) [Compound 38] : 0
CCCC(=NOC)C1=C(O)CC(c2c(C)c(C)c3c(c2Cl)CC(C)(C)C3)CC1=O (stereo not shown) [Compound 42] : 0
CCC(=NOC)C1=C(O)CC(c2c(C)c(C)c3c(c2C)CC(C)(CC)C3)CC1=O (stereo not shown) [Compound 11] : 50
CCCC(=NOCC)C1=C(O)CC(c2c(C)c(C)c3c(c2C)CC(C)(C)C3)CC1=O (stereo not shown) [Compound 7] : 0
C=CCON=C(CC)C1=C(O)CC(c2c(C)c(C)c3c(c2C)CC(C)(CC)C3)CC1=O (stereo not shown) [Compound 13] : 30

Pending compound:
**Q:** Write down measured pest or weed control at 500 g/ha (MOOVA) for this compound. CCC(=NOCC=CCl)C1=C(O)CC(c2c(C)c(C)c3c(c2C)CC(C)(C)C3)CC1=O (stereo not shown) [Compound 4]
**A:** 0

---

Quick reference for plant injury at 125 g/ha among some compounds
Test system: ORYSA
ASSAY_NOTES: Herbicidal activity for paddy test
Assay type: in vivo
CONDITION_SUMMARY: 3 Leaf, 0.125 kg/ha, read-out: Herbicidal activity, ORYSA (3 Leaf)
Please reply with the bare figure in % and do not write the unit itself.

// solved cases for plant injury at 125 g/ha follow
CCC(=NOC)C1=C(O)CC(c2c(C)c3c(c(C)c2Cl)CC(C)(C)C3)CC1=O (stereo not shown) [Compound 21] : 80
CCC(=NOC)C1=C(O)CC(c2c(C)c(C)c3c(c2C)CC(C)(C)C3)CC1=O (stereo not shown) [Compound 1] : 90
CCCC(=NOCC)C1=C(O)CC(c2c(C)c3c(c(C)c2Cl)CC(C)(C)C3)CC1=O (stereo not shown) [Compound 26] : 0
C=CCON=C(CC)C1=C(O)CC(c2c(C)c(C)c3c(c2Cl)CC(C)(C)C3)CC1=O (stereo not shown) [Compound 40] : 0
CCC(=NOCC=CCl)C1=C(O)CC(c2c(C)c(C)c3c(c2C)CC(C)(CC)C3)CC1=O (stereo not shown) [Compound 14] : 0
CCON=C(CC)C1=C(O)CC(c2c(C)c(C)c3c(c2C)CC(C)(C)C3)CC1=O (stereo not shown) [Compound 2] : 60
CCCC(=NOC)C1=C(O)CC(c2c(C)c(C)c3c(c2C)CC(C)(C)C3)CC1=O (stereo not shown) [Compound 6] : 20
CCC(=NOC)C1=C(O)CC(c2c(C)c(C)c3c(c2C)CC(C)(CC)C3)CC1=O (stereo not shown) [Compound 11] : 30

**Q:** Indicate its recorded plant injury at 125 g/ha; the compound in question is C=CCON=C(CCC)C1=C(O)CC(c2c(C)c(C)c3c(c2C)CC(C)(CC)C3)CC1=O (stereo not shown) [Compound 18]
**A:** 0

---

Tested on: MOOVA
ASSAY_NOTES: Herbicidal activity for paddy test
Assay type: in vivo
CONDITION_SUMMARY: 0.125 kg/ha
MEASURED_PARAMETER: pest or weed control at 125 g/ha (%)
Please reply with the bare figure in % and do not write the unit itself.

CCCC(=NOCC)C1=C(O)CC(c2c(C)c(C)c3c(c2C)CC(C)(C)C3)CC1=O (stereo not drawn) : 0
CCCC(=NOC)C1=C(O)CC(c2c(C)c(C)c3c(c2C)CC(C)(CC)C3)CC1=O (stereo not drawn) : 50
CCC(=NOC)C1=C(O)CC(c2c(C)c3c(c(C)c2Cl)CC(C)(C)C3)CC1=O (stereo not drawn) : 60
CCC(=NOC)C1=C(O)CC(c2c(C)c(C)c3c(c2Cl)CC(C)(C)C3)CC1=O (stereo not drawn) : 0
C=CCON=C(CCC)C1=C(O)CC(c2c(C)c(C)c3c(c2C)CC(C)(CC)C3)CC1=O (stereo not drawn) : 0

Pending molecule:
**Q:** Indicate its recorded pest or weed control at 125 g/ha; the molecule in question is CCC(=NOCC=CCl)C1=C(O)CC(c2c(C)c(C)c3c(c2C)CC(C)(CC)C3)CC1=O (stereo not drawn)
**A:** 30

---

Test system: ORYSA
ASSAY_NOTES: Herbicidal activity for paddy test
Format: in vivo
CONDITION_SUMMARY: 3 Leaf, 0.125 kg/ha, read-out: Herbicidal activity, ORYSA (3 Leaf)
Quick reference for plant injury at 125 g/ha among some compounds
Please reply with the bare figure in % and do not write the unit itself.

// solved cases for plant injury at 125 g/ha follow
CCCC(=NOC)C1=C(O)CC(c2c(C)c(C)c3c(c2Cl)CC(C)(C)C3)CC1=O (stereo not shown) : 0
CCC(=NOCC=CCl)C1=C(O)CC(c2c(C)c(C)c3c(c2C)CC(C)(C)C3)CC1=O (stereo not shown) : 10
C=CCON=C(CC)C1=C(O)CC(c2c(C)c(C)c3c(c2C)CC(C)(C)C3)CC1=O (stereo not shown) : 10

**Q:** Indicate its recorded plant injury at 125 g/ha; the compound in question is CCON=C(CC)C1=C(O)CC(c2c(C)c(C)c3c(c2Cl)CC(C)(C)C3)CC1=O (stereo not shown)
**A:** 0

**Q:** Indicate its recorded plant injury at 125 g/ha; the compound in question is CCCC(=NOC)C1=C(O)CC(c2c(C)c3c(c(C)c2Cl)CC(C)(C)C3)CC1=O (stereo not shown)
**A:** 0
